test: NCI Yeast Anticancer Drug Screen. Data for the sgs1 mgt1 strain (AID 161);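 further: 0% = growth of cultures given vehicle only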; details: S. cerevisiae sgs1 mgt1 strain, at 50.0 µM
Compounds without any hit were thinned out: in the full panel of roughly 79,000, 15% have a hit. Active and inactive are the calls of the source. No stated cut-off is given here; in the data, active means growth inhibition above about 70%; inactive means the rest.
Choose the fitting class; nothing outside 1 (yes) for active, 0 (no) for inactive is accepted.

[[record]]
compound = "O=[N+]([O-])c1c(I)ccc2ccccc12"
class_assignment = "0 (no)"

[[record]]
compound = "CC1(C(Cl)(Cl)Cl)C=CC(=NO)C=C1 (stereo unspecified)"
class_assignment = "1 (yes)"

[[record]]
compound = "CC(=O)Nc1c([N+](=O)[O-])cc2c3c(cccc13)C=C2"
class_assignment = "0 (no)"

[[record]]
compound = "Cn1c(=O)cc2c3c(ccc(C(=O)O)c31)C(=O)c1ccccc1-2"
class_assignment = "0 (no)"

[[record]]
compound = "Clc1ccc(CN2COc3c(cc(Cl)c4cccnc34)C2)cc1Cl"
class_assignment = "1 (yes)"


[ask] Which outcome was assigned to N#C/C=C/C=C/C#N in this test?
[reply] 0 (no)

[ask] Which outcome was assigned to COc1cc(C)cc(C(=O)OCc2ccccc2)c1C1=C(Cl)C(=O)C(Cl)=CC1=O in this test?
[reply] 1 (yes)

[ask] Which outcome was assigned to CCN(CC)CCCC(=O)Nc1cc(OC)cc2cccnc12 in this test?
[reply] 0 (no)

[ask] Which outcome was assigned to O=C1C(=O)N(c2ccc(Cl)c(Cl)c2)C(=O)C(=O)C1c1nc2ccccc2o1 in this test?
[reply] 1 (yes)

[ask] Which outcome was assigned to COc1ccccc1/C=C1\SC(=S)N(/C=C2\C(=O)Oc3ccccc3C2=O)C1=O in this test?
[reply] 0 (no)

[ask] Which outcome was assigned to COc1ccccc1CN1CCCN(Cc2ccccc2OC)C1c1ccccc1F in this test?
[reply] 0 (no)
